- Tested on: OVCAR-3
- protocol.notes: NCI tumour cell line growth inhibition, 48 h
Calls of active or inactive are those of the source. Rule as the data show it: active = GI50 up to about 1.1 µM and inactive = higher.
quantity.name: GI50

// fetch GI50 given entry Cc1ccc(S(=O)(=O)N2CCSCCSCCN(S(=O)(=O)c3ccc(C)cc3)CCN(S(=O)(=O)c3ccc(C)cc3)CC2)cc1
> 100 µM (inactive)

Provide one value: measured GI50 of Nc1ncc(C=O)c(NCC2(CO)CCC2)n1
50.6 µM (inactive)

Give the measured GI50 for O=C1c2cc([N+](=O)[O-])cc3cc([N+](=O)[O-])cc(c23)C(=O)N1CCCNCCNCCCN1C(=O)c2cc([N+](=O)[O-])cc3cc([N+](=O)[O-])cc(c23)C1=O
0.0897 µM (active)

Identify GI50 associated with the compound O=C(CCc1nnc2s/c(=C\c3ccccc3Cl)c(=O)n12)Nc1cc(Cl)ccc1Cl
> 100 µM (inactive)

Quote GI50 reported for CN(C)CC1CC/C(=C\c2ccc(Cl)cc2)C1=O (stereo unspecified) please.
7.35 µM (inactive)

State its GI50 for this compound: CC1(C)N=C(/C=N/O)C(C)(C)N1O
> 100 µM (inactive)

Output measured GI50 for this item: COc1ccc(/C=C2/CSCC3=C2N=C(S)NC3c2ccc(OC)c(OC)c2OC)c(OC)c1OC (stereo unspecified)
43.7 µM (inactive)

Annotate the compound Clc1cccc(N/N=N/c2ccc(-c3nc4ccccc4s3)cc2)c1 with its measured GI50.
51.5 µM (inactive)

Determine from records and report GI50 for S=c1nc(N2CCCCC2)c2cn[nH]c2[nH]1
54.8 µM (inactive)

Look up GI50 of BrC12C3C4C5C(C(C43)C13OCCO3)C52 (stereo unspecified) and report it.
> 100 µM (inactive)

Given CCCC(CCC)C(=O)O [VALPROIC ACID] , respond with its GI50.
12900 µM (inactive)

Output GI50 of Cc1cc(N)c2cc(NC(=O)Nc3ccc4nc(C)cc(N)c4c3)ccc2n1
> 100 µM (inactive)

Fill in GI50 for record O=[N+]([O-])c1nccn1COCCF
> 100 µM (inactive)

Return GI50 for the following compound: CN1c2ccccc2C2=C(c3ccccc3)CC[C@@H](C(=O)N3C4CC5CC[C@@]4(CS3(=O)=O)C5(C)C)[C@@H]21 (stereo partly specified)
> 100 µM (inactive)

Name the recorded GI50 of the item N#CCC(=O)N/N=C(\C(=O)Nc1ccc(Cl)c(Cl)c1)C1CN(c2ccccc2)N=C1N (stereo unspecified) in your answer.
> 100 µM (inactive)

Look up GI50 of O=S(=O)(c1ccccc1)C1(CCC2OCCO2)C=CC2(CC1)OCCO2 (stereo unspecified) and report it.
> 100 µM (inactive)

Supply recorded GI50 for COc1ccc(-c2ccccc2)c(N/N=C2\CCCNC2=O)c1 here.
> 100 µM (inactive)

Entry O=C1c2cccc([N+](=O)[O-])c2C(=O)N1Cc1ccccc1 needs its GI50 filled in; supply it.
> 100 µM (inactive)

State its GI50 for this compound: COc1cc(OCCN(C)C)c2[nH]c(C(=O)N3CC(CCl)c4ccc(N)cc43)cc2c1 (stereo unspecified)
0.0282 µM (active)

Consider the compound COc1ccc(/C=C/C(=O)c2sc(-c3cccnc3)nc2C)cc1 and give its recorded GI50.
24.2 µM (inactive)

Identify measured GI50 associated with CSc1sc(=S)sc1C(=O)N(C)c1ccccc1
91.8 µM (inactive)

---

- System: PC-3
- protocol.notes: NCI tumour cell line growth inhibition, 48 h
Calls of active or inactive are those of the source. Rule as the data show it: active = GI50 up to about 1.1 µM and inactive = higher.
Classes to choose from: active, inactive

I'd appreciate the recorded outcome for O=C(O)CC1(CC(=O)O)Nc2ccccc2SC1=O from this test.
inactive

Recorded call for Cc1ccc(OCC2OC(n3cnc4c(N(C)C)nc(Br)nc43)CC2Oc2ccc(C)cc2)cc1 (centres undefined) ?
inactive

Each molecule tested received a call. Report the one for NC(=S)NC/C=C/Cl .
inactive

Look up the recorded call for O=C1C(=C/C=C2/SC(c3ccccc3)(c3ccccc3)c3ccccc32)C(=O)c2ccccc21 in this test.
inactive

Please share the test call associated with O=c1[nH]c(=O)n([C@H]2CCCO2)cc1F .
inactive

GET /call?item= COC(=O)C1=C(C)N2[C@H](C(=O)O)CS[C@@]2(C)[C@H](C(=O)OC)[C@H]1c1cccc([N+](=O)[O-])c1 returns the recorded outcome of this test.
inactive

Hey, what did the test say about CSc1ccc(/C=C2\N=C(c3ccccc3)N(NC(=O)c3c(Cl)c(Cl)c(Cl)c(Cl)c3-c3nc4ccccc4[nH]3)C2=O)cc1 ?
inactive

Please state the recorded outcome for this molecule: N=C(N)NCC1CCCCCCN1 (centres undefined)
inactive

Hi team, can someone confirm the assay call for O=C(NCCN(CCNC(=O)c1cccc(=O)n1O)CCN(CCNC(=O)c1cccc(=O)n1O)CCNC(=O)c1cccc(=O)n1O)c1cccc(=O)n1O ?
inactive

Can you look up the reported call for O=C(CSCC(=O)N/N=C/c1ccncc1)N/N=C/c1ccncc1 for me?
inactive

Please indicate how the test categorized O=C1c2ccccc2C2(c3ccc(Cl)cc3)NCc3ccccc3CN12 (centres undefined) .
inactive

Which result was noted for this molecule in the test: CCOC(=O)N(C)C1(c2ccccc2)CCN(CCCC(=O)c2ccc(F)cc2)CC1
inactive

Call for entry O=S(=O)(c1ccccc1)C1(CCC2OCCO2)C=CC2(CC1)OCCO2 (centres undefined) :
inactive

Any idea what this test logged for Cc1ccc(-c2c(C#N)c(-c3ccc(Cl)cc3)c(C#N)c(=O)n2NS(=O)(=O)c2ccccc2)cc1 ?
inactive

What call does the record list for Cc1ccc(C)c(/C(=N\N=C(N)N)C2CC2)c1 ?
inactive

Hi, sorry to bother you, what did the test record for C[n+]1cn(-c2ccc([N+](=O)[O-])cn2)c2ccccc21 ?
inactive

What outcome does the record of this test show for OC1(c2ccccc2)C2CC=CC2C1(c1ccccc1)c1ccccc1 (centres undefined) ?
inactive

Record lookup: outcome of this test for COc1cc(OCCN(C)C)c2[nH]c(C(=O)N3CC(CCl)c4ccc(N)cc43)cc2c1 (centres undefined) ?
active

Each molecule tested received a call. Report the one for COc1c2c(nc3ccccc13)-c1cc(C(CC(=O)OC(C)(C)C)C(=O)OC(C)C)c(CO)c(=O)n1C2 (centres undefined) .
inactive

State the result this test recorded for COc1c(/C=C/C=O)cc2c(c1OC)OCO2 .
inactive

# lookup: test call for NC1CC(=O)c2c(Cl)sc(Cl)c21 (centres undefined)
inactive

Could you check what this test reported for Cc1ccc(C(=N)Nc2ccccc2)cc1 ?
inactive

Assay result, entry Nc1nc(Cl)c(N)c(NC23CC4CC(CC(C4)C2)C3)n1 — outcome?
inactive

Check the results log: what was the call for C=CN(C=C)C(=O)Cn1cc(-c2ccccc2)nn1 ?
inactive

---

- Tested on: MDA-MB-435
- protocol.notes: NCI tumour cell line growth inhibition, 48 h
Activity calls are given as the source filed them. Rule as the data show it: active = GI50 up to about 1.1 µM and inactive = higher.
quantity.name: GI50

Quote GI50 reported for Nc1nc(Cl)c(N)c(NC23CC4CC(CC(C4)C2)C3)n1 please.
1.41 µM (inactive)

Using known records, supply GI50 for Cc1nn(C(=O)Cc2ccccc2)c2c1C(c1ccc([N+](=O)[O-])cc1)SC(=N)N2 (stereo not given)
> 100 µM (inactive)

Determine its reported GI50: Cc1ccc(C(=N)Nc2ccccc2)cc1
> 100 µM (inactive)

Please give measured GI50 of the following entry: O=C(NCCN(CCNC(=O)c1cccc(=O)n1O)CCNC(=O)c1cccc(=O)n1O)c1cccc(=O)n1O
> 100 µM (inactive)

Specify GI50 for C[C@@H]1OC(=O)C[C@H]2CC(=O)N(CCC3CN(C(=O)OCc4ccccc4)c4ccccc43)C[C@@H]21 (stereo not given in full) and stop.
> 100 µM (inactive)

---

- Test system: NCI/ADR-RES
- protocol.notes: NCI tumour cell line growth inhibition, 48 h
Where a name gives a salt, the structure may show the parent alone. Activity calls are given as the source filed them. No stated cut-off is given here; in the data, active = GI50 up to about 1.1 µM and inactive = higher.
A correct response names exactly one class from Yes (active), No (inactive)

State the result this test recorded for CC(=O)C1(Cc2cccc3ccccc23)S(=O)(=O)OCCOS1(=O)=O .
No

Hi, do you know how CC1OC(=O)C2CC3CCCCC3C(/C=C/C3CCCC(C)N3C)C12 (configuration not stated) came out in this test?
No

Entry CC(C)Cn1cnnc1NS(=O)(=O)c1cc(C(=O)NN)c(Cl)cc1S : call = ?
No

Dear colleague, could you share the recorded outcome for CNNCc1ccc(C(=O)NC(C)C)cc1 [PROCARBAZINE HYDROCHLORIDE] when you have a moment?
No

Per the records of this test, what outcome belongs to COC(=O)c1cc(/C=C/C(=O)Cc2ccccc2)cn1S(=O)(=O)c1ccccc1 ?
No

Given N=C(N)SCc1ccc2c(c1)Sc1ccccc1O2 , state the outcome it received in this test.
No

Which outcome was assigned to COc1ccc(-c2cn3c(nc4ccccc43)c(/C=C/c3cccs3)n2)cc1 in this test?
No

Write down the call the test reported for this compound. Item: C/C1=C\CC[C@@]2(C)O[C@@H]2[C@H]2OC(=O)C(C)C2C[C@H]1O (some centres not stated)
No

Fill in: this test's call for CCCCCCCCCCCC[S+](C)C is ___
No

Assay outcome for CCCSc1cc(Cl)c(C)cc1S(=O)(=O)n1ccnc1OCCCN(C)C : what was it?
No

Per the assay record, what outcome was assigned to CC[C@@]1(O)C(=O)OCc2c1cc1n(c2=O)Cc2c-1nc1ccccc1c2/C=N\NC(=O)C(N)CC(C)C (some centres not stated) ?
Yes

Name the outcome recorded for N=C(N)NS(=O)(=O)c1ccc(NC(=O)c2ccc3nc4ccccc4c(Nc4ccc(S(N)(=O)=O)cc4)c3c2)cc1 in the assay.
No

Status in this test for NCCCCN(CCCN)Cc1ccc2ccccc2c1 ?
No

Write down the call the test reported for this compound. Item: CC1(C)C=Cc2c(cc3oc4ccc5c(c4c(=O)c3c2O)C=CC(C)(C)O5)O1
No

Identify the outcome logged in this assay for the compound shown: O=c1c2cc(Br)ccc2oc2nc3n(c(=O)c12)CCCS3
No

What classification did Clc1cc(Cl)ncn1 end up with in this test?
No

Can you look up the reported call for O=C(NCCN(CCNC(=O)c1cccc(=O)n1O)CCNC(=O)c1cccc(=O)n1O)c1cccc(=O)n1O for me?
No

So what was the verdict on Cc1cc(C)c2c(=O)cc(-c3ccccc3)[nH]c2c1 in this test?
No

Assay outcome for O=c1[nH]c(=O)n([C@H]2CCCO2)cc1F : what was it?
No

Recorded test call requested for NC1=NCC(CN2CCCCC2)O1 (configuration not stated)
No

I'd appreciate the recorded outcome for CC(=O)Nc1c(S(=O)(=O)c2ccccc2)c(C)c(C)n1CCN(C)C from this test.
No

Look up the recorded call for CSc1ccc(/C=C2\N=C(c3ccccc3)N(NC(=O)c3c(Cl)c(Cl)c(Cl)c(Cl)c3-c3nc4ccccc4[nH]3)C2=O)cc1 in this test.
No

Entry O=C1CC(c2ccccc2)Oc2ccccc21 (configuration not stated) [FLAVANONE] : call = ?
No

Test call, this compound: O=S1(=O)C(=C(c2ccccc2)c2ccccc2)S(=O)(=O)c2ccccc21
No

Recorded test outcome, item CCCCCCCCCCC/C=C(/C(=O)CCCO[Si](C)(C)C(C)(C)C)C(=O)OC
No

Identify the outcome logged in this assay for the compound shown: NC1=Nc2ccccc2Sc2nncn21
No

Per the records of this test, what outcome belongs to Cc1cn(C2OC(CO)C(O)C2F)c(=O)[nH]c1=O (configuration not stated) ?
No

Could you please tell me the result logged for Cc1ccc(C(=N)Nc2ccccc2)cc1 in this assay?
No

Entry COc1ncc(/C=C2\OC(=O)c3ccccc32)c(OC)n1 : call = ?
No

What classification did Cc1cccc(N(CCC#N)S(=O)(=O)c2ccccc2)c1 end up with in this test?
No

Call for entry O=C1c2ccccc2C2(c3ccc(Cl)cc3)NCc3ccccc3CN12 (configuration not stated) :
No

Given CC(C)[Si]1(C(C)C)OCC2OC3(CO)C(Oc4nc(=O)ccn43)C2O[Si](C(C)C)(C(C)C)O1 (configuration not stated) , state the outcome it received in this test.
No

Hi, do you know how Cc1ccc(C(=O)N/N=C(\N=N\c2ccccc2)c2ccc(N(CCC#N)CCC#N)cc2C)cc1 came out in this test?
No

What did the test return for CC(CCOc1c2ccoc2cc2oc(=O)ccc12)C1=CC(=O)C(C)(C)O1 (configuration not stated) ?
No

Identify the outcome logged in this assay for the compound shown: CCN(CC)CCN(C)CCc1ccc(Br)cc1
No

Lab log entry: COc1cc([C@@H]2c3cc4c(cc3[C@@H](Nc3ccc(C(=O)N[C@H]5CCc6cc(OC)c(OC)c(OC)c6-c6ccc(SC)c(=O)cc65)cc3)[C@H]3COC(=O)[C@H]23)OCO4)cc(OC)c1O — outcome as called in the assay?
Yes

Answer briefly: the call reported for COc1cc(/C=N/c2ccc(Oc3ccc(Cl)cc3)c(Cl)c2)cc(OC)c1OC in this assay.
No

Dear colleague, could you share the recorded outcome for CCOC(=O)N(C)C1(c2ccccc2)CCN(CCCC(=O)c2ccc(F)cc2)CC1 when you have a moment?
No

Called result for C/C(=N\Nc1nc2ccccc2[nH]1)c1ccc2ccccc2n1
No

Recorded test call requested for Nc1ncn([C@H]2C[C@H](O)[C@@H](CO)O2)c(=O)n1 [DECITABINE]
No

Would you mind telling me which call this test gave C[C@H]1[C@H](N2CCCC2)O[Si](C(C)(C)C)(C(C)(C)C)[C@@H]1C ?
No

// outcome(item) with item = N/N=C1N=C(Cl)/C(=C/c2ccco2)N\1
No
